Provenance of the data: patent US20250144067A1

Please respond with reported Complete for every item in the list.
Test system: NCI-H292 lung cancer cells
Assay: FDA drug screening, complete media vs cholesterol-free media without statin (TABLE 1)
Assay type: cell-based, human
Conditions: NCI-H292 cells, complete media, FDA drug library screen
Structures can show the parent of a compound that is named as a salt. Numbered stars: 1 amine (or outer) side, 2 acyl side, 3 side chain; on linkers, the order of the positions; unused ones are H or OH. Bridge positions count the residues as written; N and C are the ends. Square brackets hold non-standard residues; d marks the D form. Peptide text beside a SMILES is read from it. * marks the point of attachment. hTyr(3S-OH,4S-OH,3'-OSO3H) = N[C@H](C(=O)O)[C@H](O)[C@@H](O)c1ccc(O)c(OS(=O)(=O)O)c1; Orn(4R-OH,5R-OH) = O=C([C@H](C[C@@H](O)[C@@H](O)N[*:3])N[*:1])[*:2]; Pro(3S-OH,4S-Me) = C[C@H]1CN[C@H](C(=O)O)[C@H]1O; X1 = CCCCCOc1ccc(-c2cc(-c3ccc(C(=O)*)cc3)no2)cc1; Gln(3R-OH) = NC(=O)C[C@@H](O)[C@H](N)C(=O)O; Hyp = O=C(O)[C@@H]1C[C@@H](O)CN1

Challenge: Quick one: Complete of CN1CCN(c2ccc(C(=O)Nc3n[nH]c4ccc(Cc5cc(F)cc(F)c5)cc34)c(NC3CCOCC3)c2)CC1 ?
Response given: 0.3827

Challenge: Quick one: Complete of C=CCCCCCCCCC(=O)O ?
Response given: 0.99

Challenge: Quick one: Complete of O=C1Nc2ccccc2/C1=C1/Nc2ccccc2C1=O ?
Response given: 0.7337

Challenge: Quick one: Complete of C#C[C@]1(O)CC[C@H]2[C@@H]3CCC4=Cc5oncc5C[C@]4(C)[C@H]3CC[C@@]21C ?
Response given: 0.7604

Challenge: Quick one: Complete of O=C(O)CCC(=O)Nc1ccc(S(=O)(=O)Nc2nccs2)cc1 ?
Response given: 0.8836

Challenge: Quick one: Complete of COC(=O)N[C@H](C(=O)N1CCC[C@H]1c1nc(-c2ccc(-c3ccc(-c4c[nH]c([C@@H]5CCCN5C(=O)[C@@H](NC(=O)OC)C(C)C)n4)cc3)cc2)c[nH]1)C(C)C [Daclatasvir (dihydrochloride)] ?
Response given: 1.046

Challenge: Quick one: Complete of COc1cc(C(=O)NCc2ccc(OCCN(C)C)cc2)cc(OC)c1OC [Trimethobenzamide hydrochloride] ?
Response given: 0.9013

Challenge: Quick one: Complete of Nc1c2c(nc3ccccc13)CCCC2 [Tacrine hydrochloride hydrate] ?
Response given: 1.477

Challenge: Quick one: Complete of COC(=O)Nc1nc2ccc(C(=O)c3ccccc3)cc2[nH]1 ?
Response given: 0.3848

Challenge: Quick one: Complete of Cc1c(C)c2c(c(C)c1O)CCC(C)(CCCC(C)CCCC(C)CCCC(C)C)O2 (racemic) ?
Response given: 1.459

Challenge: Quick one: Complete of CC1=CC(=O)c2ccccc2C1=O ?
Response given: 1.342

Challenge: Quick one: Complete of Cn1ncnc1[C@H]1c2n[nH]c(=O)c3cc(F)cc(c23)N[C@@H]1c1ccc(F)cc1 [Talazoparib tosylate] ?
Response given: 0.1924

Challenge: Quick one: Complete of CCCCCOc1ccc(-c2cc(-c3ccc(C(=O)N[C@H]4C[C@@H](O)[C@@H](O)NC(=O)[C@@H]5[C@@H](O)[C@@H](C)CN5C(=O)[C@H]([C@H](O)CC(N)=O)NC(=O)[C@H]([C@H](O)[C@@H](O)c5ccc(O)c(OS(=O)(=O)O)c5)NC(=O)[C@@H]5C[C@@H](O)CN5C(=O)[C@H]([C@@H](C)O)NC4=O)cc3)no2)cc1 [Micafungin (sodium)] (X1-[Orn(4R-OH,5R-OH)]T[Hyp][hTyr(3S-OH,4S-OH,3'-OSO3H)][Gln(3R-OH)][Pro(3S-OH,4S-Me)]; lactam 1-C) ?
Response given: 1.188

Challenge: Quick one: Complete of CCn1nc(C(=O)O)c(=O)c2cc3c(cc21)OCO3 ?
Response given: 0.951

Challenge: Quick one: Complete of COCCOC(=O)C1=C(C)NC(C)=C(C(=O)OC/C=C/c2ccccc2)C1c1cccc([N+](=O)[O-])c1 (stereo not shown) ?
Response given: 1.574

Challenge: Quick one: Complete of CC[N+](C)(CC)CCOC(=O)C(O)(c1ccccc1)c1ccccc1 [Methylbenactyzium Bromide] ?
Response given: 0.945

Challenge: Quick one: Complete of Nc1nc(NC2CC2)c2ncn([C@H]3C=C[C@@H](CO)C3)c2n1.Nc1nc(NC2CC2)c2ncn([C@H]3C=C[C@@H](CO)C3)c2n1.O=S(=O)(O)O [Abacavir (sulfate)] ?
Response given: 0.4872

Challenge: Quick one: Complete of C[C@@H](c1ncncc1F)[C@](O)(Cn1cncn1)c1ccc(F)cc1F ?
Response given: 0.9897

Challenge: Quick one: Complete of CCCN1CCCC[C@H]1C(=O)Nc1c(C)cccc1C [Ropivacaine (hydrochloride)] ?
Response given: 1.265

Challenge: Quick one: Complete of N[C@H](Cc1ccc(O)cc1)C(=O)O ?
Response given: 1.068

Challenge: Quick one: Complete of CC(=O)Oc1c(C)c(C)c2c(c1C)CCC(C)(CCC[C@H](C)CCC[C@H](C)CCCC(C)C)O2 (stereo partly drawn) [D-α-Tocopherol acetate] ?
Response given: 1.233

Challenge: Quick one: Complete of CCN(CC)Cc1cc(Nc2ccnc3cc(Cl)ccc23)ccc1O [Amodiaquine (dihydrochloride dihydrate)] ?
Response given: 1.353

Challenge: Quick one: Complete of O=C(O)/C=C/c1ccc(O)c(O)c1 ?
Response given: 0.8915

Challenge: Quick one: Complete of NC(=O)c1cnc2[nH]ccc2c1N[C@@H]1[C@@H]2CC3C[C@H]1C[C@@](O)(C3)C2 ?
Response given: 1.303

Challenge: Quick one: Complete of COc1cc(OC)cc(N(CCNC(C)C)c2ccc3ncc(-c4cnn(C)c4)nc3c2)c1 ?
Response given: 1.177

* * *

Test system: NCI-H292 lung cancer cells
Assay: FDA drug screening, complete media vs cholesterol-free media with simvastatin (TABLE 2)
Format: cell-based, human
Details: NCI-H292 cells, FDA library drug in complete media
Structures can show the parent of a compound that is named as a salt.
We use 1 as the dividing line for Complete Media: on or above the line is Condition met, below is Condition not met.

Challenge: I'd appreciate it if you could say whether CONC(=O)Nc1ccc(-c2sc3c(c2CN(C)C)c(=O)n(-c2ccc(OC)nn2)c(=O)n3Cc2c(F)cccc2F)cc1 has Complete Media at least equal to 1.
Response given: Condition met

Challenge: I'd appreciate it if you could say whether CNCCCC12CCC(c3ccccc31)c1ccccc12 [Maprotiline (hydrochloride)] has Complete Media at least equal to 1.
Response given: Condition not met

Challenge: I'd appreciate it if you could say whether COc1ccc2cc(CCC(C)=O)ccc2c1 has Complete Media at least equal to 1.
Response given: Condition met

Challenge: I'd appreciate it if you could say whether CCCCCN(C)CCC(O)(P(=O)(O)O)P(=O)(O)O [Ibandronate (Sodium Monohydrate)] has Complete Media at least equal to 1.
Response given: Condition not met

Challenge: I'd appreciate it if you could say whether C/C(O)=C(\C#N)C(=O)Nc1ccc(C(F)(F)F)cc1 [Teriflunomide] has Complete Media at least equal to 1.
Response given: Condition not met

* * *

Please respond with reported Complete Media for every item in the list.
System: NCI-H292 lung cancer cells
Assay: FDA drug screening, complete media vs cholesterol-free media with simvastatin (TABLE 2)
Type: cell-based, human
Settings: NCI-H292 cells, FDA drug library screen, complete media
Counter-ions that a name gives are not always drawn.
Number only, please.

Challenge: Quick one: Complete Media of N=C(N)NC(=O)c1nc(Cl)c(N)nc1N [Amiloride (hydrochloride)] ?
Response given: 0.8717

Challenge: Quick one: Complete Media of NC(=O)[C@@H]1CC[C@@H]2CN1C(=O)N2OS(=O)(=O)O [Avibactam (sodium hydrate)] ?
Response given: 1.029

Challenge: Quick one: Complete Media of CCN1CC(CCN2CCOCC2)C(c2ccccc2)(c2ccccc2)C1=O (stereo not shown) [Doxapram (hydrochloride hydrate)] ?
Response given: 1.128

Challenge: Quick one: Complete Media of CC(C)C(=O)OCC(=O)[C@@]12O[C@H](C3CCCCC3)O[C@@H]1C[C@H]1[C@@H]3CCC4=CC(=O)C=C[C@]4(C)[C@H]3[C@@H](O)C[C@@]12C [Ciclesonide] ?
Response given: 0.5742

Challenge: Quick one: Complete Media of CC1(C)S[C@@H]2[C@H](NC(=O)[C@H](NC(=O)N3CCNC3=O)c3ccccc3)C(=O)N2[C@H]1C(=O)O [Azlocillin (sodium salt)] ?
Response given: 0.9592

Challenge: Quick one: Complete Media of CC(=O)OCC(=O)NCCCOc1cccc(CN2CCCCC2)c1.Cl [Roxatidine (Acetate Hydrochloride)] ?
Response given: 1.004

Challenge: Quick one: Complete Media of O=C(c1ccc(OCCN2CCCCC2)cc1)c1c(-c2ccc(O)cc2)sc2cc(O)ccc12 [Raloxifene (hydrochloride)] ?
Response given: 0.7486

Challenge: Quick one: Complete Media of CCCN(CCc1cccs1)[C@H]1CCc2c(O)cccc2C1 [Rotigotine (Hydrochloride)] ?
Response given: 0.6752

Challenge: Quick one: Complete Media of CCOc1ccccc1C(N)=O [2-Ethoxybenzamide] ?
Response given: 0.9754

Challenge: Quick one: Complete Media of CCc1c(C)[nH]c2c1C(=O)C(CN1CCOCC1)CC2 (stereo not shown) [Molindone (hydrochloride)] ?
Response given: 0.8609

Challenge: Quick one: Complete Media of COc1ccc([C@@H]2Sc3ccccc3N(CCN(C)C)C(=O)[C@@H]2OC(C)=O)cc1 [Diltiazem (hydrochloride)] ?
Response given: 1.159

Challenge: Quick one: Complete Media of CCOc1nc2cccc(C(=O)OCc3oc(=O)oc3C)c2n1Cc1ccc(-c2ccccc2-c2noc(=O)[nH]2)cc1 [Azilsartan medoxomil] ?
Response given: 1.269

Challenge: Quick one: Complete Media of CCOC(=O)[C@H](CCc1ccccc1)N[C@H]1CCc2ccccc2N(CC(=O)O)C1=O [Benazepril (hydrochloride)] ?
Response given: 0.9854

Challenge: Quick one: Complete Media of C=C[C@@H]1C[C@]1(NC(=O)[C@@H]1C[C@@H]2CN1C(=O)[C@H](C(C)(C)C)NC(=O)O[C@@H]1C[C@H]1CCCCCc1nc3ccc(OC)cc3nc1O2)C(=O)[N-]S(=O)(=O)C1CC1.[K+] [Grazoprevir potassium salt] ?
Response given: 1.827

Challenge: Quick one: Complete Media of COC(=O)C1=C(C)NC(C)=C(C(=O)OC(C)C)C1c1cccc2nonc12 (stereo not shown) [Isradipine] ?
Response given: 1.061

Challenge: Quick one: Complete Media of CCOc1ccc2nc(S(N)(=O)=O)sc2c1 [Ethoxzolamide] ?
Response given: 1.016
